- Assay System: UniProt:A8MUK1
- Sequence (A8MUK1 whole entry, looked up): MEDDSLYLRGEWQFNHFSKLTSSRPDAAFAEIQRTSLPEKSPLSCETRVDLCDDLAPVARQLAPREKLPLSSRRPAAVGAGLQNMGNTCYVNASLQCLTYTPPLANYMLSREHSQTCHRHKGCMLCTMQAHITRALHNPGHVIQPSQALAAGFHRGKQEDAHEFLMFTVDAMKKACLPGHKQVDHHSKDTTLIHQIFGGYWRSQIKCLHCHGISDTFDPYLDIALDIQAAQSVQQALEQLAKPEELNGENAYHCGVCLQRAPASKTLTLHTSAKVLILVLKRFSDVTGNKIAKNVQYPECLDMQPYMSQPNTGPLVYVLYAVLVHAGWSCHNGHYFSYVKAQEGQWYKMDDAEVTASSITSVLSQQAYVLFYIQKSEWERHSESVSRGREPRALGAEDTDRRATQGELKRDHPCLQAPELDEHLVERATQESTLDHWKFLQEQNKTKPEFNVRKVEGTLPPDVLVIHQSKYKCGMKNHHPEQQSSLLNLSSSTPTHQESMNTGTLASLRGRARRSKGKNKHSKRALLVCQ
- Measurement Notes: ubiquitin-specific protease 17 DUB inhibitors, concentration-effect assay, cell-free, verification of initial screening actives (AID 1645864)
- Cond: purified USP17, ubiquitin-rhodamine cleavage fluorescence, 3 h
The source made the active and inactive calls.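 The calls were made as follows: active = maximal inhibition of USP17 at or above 30% in the confirmation dose-response, a value not among the printed readouts; inactive = the rest.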
Labels: active, inactive

- Compound: "O=C(NCc1cccnc1)C1CCN(c2cnc(N3CCCCCC3)nc2)CC1"
  Assigned Category: "inactive"
- Compound: "O=[N+]([O-])c1ccc(NCC2COc3ccccc3O2)c(Cl)c1 (centres undefined)"
  Assigned Category: "inactive"
- Compound: "O=C(COC(=O)c1cc2c(s1)CCC2)c1ccc2[nH]c(=O)[nH]c2c1"
  Assigned Category: "active"
- Compound: "O=C(Nc1cccc(Cl)c1)N1CCC(c2cc(-c3ccco3)n[nH]2)CC1"
  Assigned Category: "active"
- Compound: "CCOc1ccc(NS(=O)(=O)c2ccc(NC(=O)Nc3ccccc3)cc2)cc1"
  Assigned Category: "active"
- Compound: "CCN1C[C@@H]2C[C@]2(c2ccccc2OC)C(=O)c2ncccc21"
  Assigned Category: "inactive"
- Compound: "CC(C)N1CC2CN(C(=O)c3ccccc3)CCN2Cc2ccccc21 (centres undefined)"
  Assigned Category: "inactive"
- Compound: "COc1cc(C2SCC(=O)Nc3c2c(-c2ccccc2)nn3-c2ccccc2)cc(OC)c1OC (centres undefined)"
  Assigned Category: "inactive"
- Compound: "Cc1ccc(NC(=O)c2ccc(Nc3nnc(C)c4ccccc34)cc2)cc1"
  Assigned Category: "active"
- Compound: "O=C(Nc1ccccc1)c1nc(-c2cn(Cc3ccc(F)cc3)nn2)no1"
  Assigned Category: "active"
- Compound: "COc1cccc(NC(=O)c2ccc(-c3csc(C)n3)cc2)c1"
  Assigned Category: "inactive"
- Compound: "O=C(Cc1cccs1)Nc1cc(F)c2nc(N3CCOCC3)ccc2c1"
  Assigned Category: "active"
- Compound: "CCOc1ccc(C2=NCCNC3=C2C(c2ccccc2)N(c2ccccc2)C3=O)cc1 (centres undefined)"
  Assigned Category: "inactive"
- Compound: "Cc1ccc2c(=O)c(C(=O)Nc3ccccc3)cn(CC(=O)NC3CCCCC3)c2n1"
  Assigned Category: "active"
